Below, each entry is listed with its recorded Emax at 10 µM.
# Target Desc: GABAA receptors composed of the α1β2γ2 subunits (GABRA1/GABRB2/GABRG2) (Homo sapiens, UniProt P14867+P47870)
# Construct: expressed in transfected cells; host or cells: Xenopus laevis oocytes, injected (ratio 1:1:1)
# Sequence (P14867 28-456): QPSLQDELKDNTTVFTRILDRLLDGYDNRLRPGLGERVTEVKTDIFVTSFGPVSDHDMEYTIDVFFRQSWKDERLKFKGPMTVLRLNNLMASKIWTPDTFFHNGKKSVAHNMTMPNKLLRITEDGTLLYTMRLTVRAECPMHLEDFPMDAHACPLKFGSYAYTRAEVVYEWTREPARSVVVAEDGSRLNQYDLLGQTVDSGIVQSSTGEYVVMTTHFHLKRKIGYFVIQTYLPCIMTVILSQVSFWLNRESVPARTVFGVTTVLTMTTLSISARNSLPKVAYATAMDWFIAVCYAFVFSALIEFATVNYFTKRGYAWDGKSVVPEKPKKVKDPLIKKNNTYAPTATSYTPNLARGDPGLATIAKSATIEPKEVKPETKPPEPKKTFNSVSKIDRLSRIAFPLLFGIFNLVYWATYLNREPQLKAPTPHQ
# Sequence (P47870 26-512): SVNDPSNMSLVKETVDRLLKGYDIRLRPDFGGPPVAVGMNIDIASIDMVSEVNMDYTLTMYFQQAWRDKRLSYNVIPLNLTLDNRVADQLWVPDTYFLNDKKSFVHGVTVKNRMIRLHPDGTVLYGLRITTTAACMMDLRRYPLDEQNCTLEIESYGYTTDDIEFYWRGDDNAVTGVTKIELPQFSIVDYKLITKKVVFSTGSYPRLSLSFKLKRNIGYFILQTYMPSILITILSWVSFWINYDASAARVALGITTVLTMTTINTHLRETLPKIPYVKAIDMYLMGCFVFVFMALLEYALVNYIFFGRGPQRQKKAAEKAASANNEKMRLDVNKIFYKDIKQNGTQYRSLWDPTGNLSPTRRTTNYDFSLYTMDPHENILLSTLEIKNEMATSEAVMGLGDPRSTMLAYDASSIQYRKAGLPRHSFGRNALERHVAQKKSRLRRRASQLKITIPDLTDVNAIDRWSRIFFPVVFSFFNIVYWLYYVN
# Sequence (P18507 40-475 partner): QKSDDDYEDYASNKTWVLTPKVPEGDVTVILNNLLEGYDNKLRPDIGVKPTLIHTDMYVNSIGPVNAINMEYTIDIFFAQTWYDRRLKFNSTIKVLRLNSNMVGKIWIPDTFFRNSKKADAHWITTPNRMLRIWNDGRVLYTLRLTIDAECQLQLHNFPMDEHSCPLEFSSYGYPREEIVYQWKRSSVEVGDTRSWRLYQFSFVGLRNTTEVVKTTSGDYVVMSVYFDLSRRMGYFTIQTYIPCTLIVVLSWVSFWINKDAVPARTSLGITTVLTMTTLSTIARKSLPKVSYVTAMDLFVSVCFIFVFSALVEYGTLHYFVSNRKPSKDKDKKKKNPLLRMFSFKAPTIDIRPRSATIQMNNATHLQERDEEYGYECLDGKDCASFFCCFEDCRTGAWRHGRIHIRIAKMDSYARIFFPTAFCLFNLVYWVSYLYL
# Protocol Text: Two Electrode Voltage Clamp (TEVC), GABA receptor potentiation in Xenopus laevis oocytes, α1β2γ2
# Type: cell-based
# Conditions: 10 μM compound, 10 μM GABA, read-out: GABA (α1β2γ2) % efficacy at 10 μM
# Description: The Two Electrode Voltage Clamp (TEVC) technique was used to investigate the effects of compounds at a concentration of 10 μM on GABAA receptors composed of the α1β2γ2 or α4β3δ subunits expressed in oocytes from the Xenopus laevis. GABA-evoked currents were recorded from oocytes that expressed the GABA receptors and the modulatory effects of the test items on these currents were investigated. […]

- Mol Smiles: "COC[C@]12CC[C@@](C)(O)C[C@@H]1CC[C@H]1[C@@H]3CC[C@H](C(=O)Cn4nnc5ccc(OC)c(OC)c54)[C@@]3(C)CC[C@@H]12"
  Observable: "Emax at 10 µM"
  Experimental Result: "500 to 1000%"
- Mol Smiles: "COC[C@]12CC[C@@](C)(O)C[C@@H]1CC[C@H]1[C@@H]3CC[C@H](C(=O)Cn4ncc5ccc(F)cc54)[C@@]3(C)CC[C@@H]12"
  Observable: "Emax at 10 µM"
  Experimental Result: "500 to 1000%"
- Mol Smiles: "COC[C@]12CC[C@@](C)(O)C[C@@H]1CC[C@H]1[C@@H]3CC[C@H](C(=O)Cn4ncc5ncc(Br)cc54)[C@@]3(C)CC[C@@H]12"
  Observable: "Emax at 10 µM"
  Experimental Result: "50 to 500%"
- Mol Smiles: "COC[C@]12CC[C@@](C)(O)C[C@@H]1CC[C@H]1[C@@H]3CC[C@H](C(=O)Cn4nc5cc(OC)cc(OC)c5n4)[C@@]3(C)CC[C@@H]12"
  Observable: "Emax at 10 µM"
  Experimental Result: "500 to 1000%"
- Mol Smiles: "CCOC[C@]12CC[C@@](C)(O)C[C@@H]1CC[C@H]1[C@@H]3CC[C@H](C(=O)Cn4nnc(C)n4)[C@@]3(C)CC[C@@H]12"
  Observable: "Emax at 10 µM"
  Experimental Result: "500 to 1000%"

# context switch: different compound, same Emax at 10 µM
Problem: Fill in: Emax at 10 µM of COC[C@]12CC[C@@](C)(O)C[C@@H]1CC[C@H]1[C@@H]3CC[C@H](C(=O)Cn4cc5ccncc5n4)[C@@]3(C)CC[C@@H]12 is ___
Result: 1000 to 1500%
